Data credit: PubChem BioAssay (NCI)

system: HCT-15 colon; assay: NCI tumour cell line growth inhibition, 48 h
Measured TGI accompanies every entry in the list below.

Query: # TGI lookup, item "O=C1c2ccccc2S(=O)(=O)N1CSC(=S)N1CCOCC1"
Result: > 100 µM

Query: # TGI lookup, item "CCCCc1ccc(Nc2nc3c(ncn3COCCBr)c(=O)[nH]2)cc1"
Result: > 100 µM

Turning now to a further record.
Query: # TGI lookup, item "Cn1cc(NC(=O)c2cc(NC(=O)CCCCCCCCCC(=O)Nc3cc(C(=O)Nc4cc(C(=O)NCCC(=N)N)n(C)c4)n(C)c3)cn2C)cc1C(=O)NCCC(=N)N"
Result: > 100 µM

###

system: IGROV1 ovarian; test: NCI tumour cell line growth inhibition, 48 h
Measured TGI accompanies every entry in the list below.

A selection of reference data follows.
Query: # TGI lookup, item "CN/N=C(/C=C/c1ccccc1)C(C)C"
Result: > 100 µM

Query: # TGI lookup, item O=C1NC(N/N=C\C(O)C(O)C(O)C(O)CO)=N/C1=C\c1ccc(Cl)cc1 (configuration not stated)
Result: 31.9 µM

More entries:
Query: # TGI lookup, item "CC[O-].CC[O-].CN(C)c1ccc([O-])cc1.CN(C)c1ccc([O-])cc1.[Ti+4]"
Result: > 100 µM

Query: # TGI lookup, item CCOP(=O)(OCC)C(C)(CC)NC1=NC(C(F)(F)F)(C(F)(F)F)NC(=O)N1 (configuration not stated)
Result: > 100 µM

Query: # TGI lookup, item CCC1c2[nH]c3ccccc3c2C[C@H]2C(=O)NC(Cc3c[nH]c4ccccc34)C(=O)N12 (some centres not stated)
Result: 65.2 µM

Query: # TGI lookup, item "CCC(=O)NC(Nc1ccccc1F)(C(F)(F)F)C(F)(F)F"
Result: > 100 µM

Query: # TGI lookup, item CCOC(=O)C(C(=O)OCC)C1C=CCC2c3ccccc3COCC21 (configuration not stated)
Result: > 100 µM

###

Measured TGI accompanies every entry in the list below.
system: MDA-MB-435; assay: NCI tumour cell line growth inhibition, 48 h

A selection of reference data follows.
Query: # TGI lookup, item "CC(C)(C(=O)NCC(F)(F)C(F)(F)F)C(=O)N[C@@H]1C(=O)Nc2ccccc2-c2ccccc21"
Result: > 100 µM

Query: # TGI lookup, item "CO/C(=N\N=C\c1ccccc1F)c1ccncc1"
Result: > 10 µM

More entries:
Query: # TGI lookup, item CCOC(=O)C(C(=O)OCC)C1C=CCC2c3ccccc3COCC21 (stereo not given)
Result: > 100 µM

Query: # TGI lookup, item "O=c1oc2c([N+](=O)[O-])cc([N+](=O)[O-])cc2c2ccccc12"
Result: > 100 µM

Query: # TGI lookup, item "Cc1cccc(-n2cnc3cc(C(=O)N4CCCCC4)ccc32)c1"
Result: > 100 µM

###

Measured TGI accompanies every entry in the list below.
system: MCF7 breast; assay: NCI tumour cell line growth inhibition, 48 h
Where a SMILES comes first, the peptide text is derived from it.

Query: # TGI lookup, item "O=c1[nH]nc(-c2nn(-c3ccc(Cl)cc3)cc2O)o1"
Result: > 100 µM

Query: # TGI lookup, item "Nc1c(C(=O)N/N=C/c2ccco2)cnn1-c1ccnc2c(C(F)(F)F)cccc12"
Result: 65.4 µM

Query: # TGI lookup, item "O=Cc1cn(Cc2ccccc2)c2ccccc12"
Result: > 100 µM

Query: # TGI lookup, item CCC(C)C1NC(=O)C(CCCCN)NC(=O)C(CCCCN)NC(=O)C(CC(C)C)NC(=O)C(CCCCN)NC(=O)C(C(C)CC)NC(=O)C(C(C)C)NC(=O)C(C(C)CC)NC(=O)C(CCCCN)NC(=O)C(CCCCN)NC(=O)C(C)NC(=O)C(CCCCN)NC(=O)C(CC(C)C)NC1=O (stereo not drawn) (cyclo(AKKIVIKLKKILK); configuration not given here)
Result: 5.98 µM

Query: # TGI lookup, item CC1C2CC(CC23OCC(CCl)O3)C1(C)C (stereo not drawn)
Result: > 100 µM

Query: # TGI lookup, item "Cc1ncc([N+](=O)[O-])n1CCNC(=O)CCC(=O)NCCCn1ccnc1[N+](=O)[O-]"
Result: > 100 µM

More entries:
Query: # TGI lookup, item "CCCCc1ccc(Nc2nc3c(ncn3COCCBr)c(=O)[nH]2)cc1"
Result: > 100 µM

Query: # TGI lookup, item CCOC(=O)CC1C(O)C(=O)N(C)C1c1ccccc1 (stereo not drawn)
Result: > 100 µM

Query: # TGI lookup, item CCOC(=O)C1C(c2ccc3c(c2)OCO3)c2c([nH][nH]c2=O)CC1(O)OCC (stereo not drawn)
Result: > 100 µM

Query: # TGI lookup, item "c1ccc(P2c3ccccc3Nc3ccccc32)cc1"
Result: > 100 µM

Query: # TGI lookup, item "CCCCCCCCn1ccc2cc(NC(=O)Cn3cc(CN4CCN(CC)CC4)nn3)ccc21"
Result: 3.73 µM

Query: # TGI lookup, item "CC(C)(C(=O)NCC(F)(F)C(F)(F)F)C(=O)N[C@@H]1C(=O)Nc2ccccc2-c2ccccc21"
Result: > 100 µM

Query: # TGI lookup, item "CN/N=C(/C=C/c1ccccc1)C(C)C"
Result: > 100 µM
